- TGT: MLLT1 (Homo sapiens)
- Construct: endogenous in cells; host or cells: MV4-11 (ATCC CRL-9591)
- ASSAY OVERVIEW: MLLT1 degradation assay (JESS automated chemiluminescent detection) in MV4-11 cells
- Format: cell-based
- CONDITION INFO: 0.01 µM, 24h, with respect to DMSO control

# COMPOUND, inhibition at 0.01 µM
rows = [
    ("Cc1nn(CCCCCCNc2cccc3c2C(=O)N(C2CCC(=O)NC2=O)C3=O)c2cc(C(=O)Nc3cc4[nH]c([C@H]5CCCN5C)cc4cn3)ccc12 (stereo partly drawn)", "≥ 75%"),
    ("Cc1nn(CCCCCCCC#Cc2cc3c(cc2F)c(N2CCC(=O)NC2=O)nn3C)c2cc(C(=O)Nc3cc4[nH]c([C@H]5CCCN5C)cc4cn3)ccc12", "25 to 50%"),
    ("CN1CCC[C@@H]1c1cc2cnc(NC(=O)c3ccc4c(cnn4CCCCCCCC#Cc4cccc5c4CN(C4CCC(=O)NC4=O)C5=O)c3)cc2[nH]1 (stereo partly drawn)", "50 to 75%"),
    ("Cc1nn(C2CCN(CC#Cc3cccc4c3CN(C3CCC(=O)NC3=O)C4=O)CC2)c2cc(C(=O)Nc3cc4[nH]c([C@H]5CCCN5C)cc4cn3)ccc12 (stereo partly drawn)", "≥ 75%"),
    ("Cc1nn(CCCCCC#Cc2cccc3c2CN(C2CCC(=O)NC2=O)C3=O)c2cc(C(=O)Nc3cc4[nH]c([C@H]5CCCN5C)cc4cn3)ccc12 (stereo partly drawn)", "≥ 75%"),
    ("CN1CCC[C@@H]1c1cc2cnc(NC(=O)c3ccc4c(cnn4CCCCCCCCNc4cccc5c4C(=O)N(C4CCC(=O)NC4=O)C5=O)c3)cc2[nH]1 (stereo partly drawn)", "≥ 75%"),
    ("Cc1nn(CCCCNc2cccc3c2C(=O)N(C2CCC(=O)NC2=O)C3=O)c2cc(C(=O)Nc3cc4[nH]c([C@H]5CCCN5C)cc4cn3)ccc12 (stereo partly drawn)", "≥ 75%"),
    ("Cc1nn(CCCCCN2CCN(c3cc4c(cc3F)C(=O)N(C3CCC(=O)NC3=O)C4=O)CC2)c2cc(C(=O)Nc3cc4[nH]c([C@H]5CCCN5C)cc4cn3)ccc12 (stereo partly drawn)", "≥ 75%"),
    ("Cc1nn(CCCCCCCC#Cc2ccc(C(=O)N[C@H]3CCC(=O)NC3=O)nc2)c2cc(C(=O)Nc3cc4[nH]c([C@H]5CCCN5C)cc4cn3)ccc12", "< 25%"),
    ("CN1CCC[C@@H]1c1cc2cnc(NC(=O)c3ccc4c(C5CC5)nn(CCCCCCCC#Cc5cccc6c5CN(C5CCC(=O)NC5=O)C6=O)c4c3)cc2[nH]1 (stereo partly drawn)", "≥ 75%"),
    ("Cc1nn(CCCCCCC#Cc2cccc3c2CN(C2CCC(=O)NC2=O)C3=O)c2cc(C(=O)Nc3cc4[nH]c([C@H]5CCCN5C)cc4cn3)ccc12 (stereo partly drawn)", "≥ 75%"),
    ("Cc1nn(CCCCCCCC#Cc2cccc(C(=O)N[C@H]3CCC(=O)NC3=O)n2)c2cc(C(=O)Nc3cc4[nH]c([C@H]5CCCN5C)cc4cn3)ccc12", "50 to 75%"),
]

----------
- TGT: MLLT1 (Homo sapiens, UniProt Q03111)
- Construct: endogenous in cells; host or cells: MV4-11 (ATCC CRL-9591)
- Sequence (Q03111 1-559): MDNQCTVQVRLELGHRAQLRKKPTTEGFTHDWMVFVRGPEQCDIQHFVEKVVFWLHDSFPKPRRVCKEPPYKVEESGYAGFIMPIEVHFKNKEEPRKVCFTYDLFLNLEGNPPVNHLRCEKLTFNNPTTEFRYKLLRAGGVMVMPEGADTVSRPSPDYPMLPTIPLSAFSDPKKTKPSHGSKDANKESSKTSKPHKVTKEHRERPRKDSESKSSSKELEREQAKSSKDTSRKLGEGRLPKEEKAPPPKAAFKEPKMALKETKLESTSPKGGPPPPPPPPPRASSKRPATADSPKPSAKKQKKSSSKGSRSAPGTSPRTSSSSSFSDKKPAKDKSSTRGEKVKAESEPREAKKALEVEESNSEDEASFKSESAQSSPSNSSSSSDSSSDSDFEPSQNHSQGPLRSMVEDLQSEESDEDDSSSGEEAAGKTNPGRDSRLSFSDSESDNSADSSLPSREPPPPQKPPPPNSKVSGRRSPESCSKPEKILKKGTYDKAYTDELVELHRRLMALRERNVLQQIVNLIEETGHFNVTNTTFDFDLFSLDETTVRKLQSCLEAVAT
- ASSAY OVERVIEW: MLLT1 degradation assay (JESS automated chemiluminescent detection) in MV4-11 cells
- Type: cell-based
- CONDITION INFO: 0.1 µM, 24h, with respect to DMSO control

# MOLECULE, TGT, inhibition at 0.1 µM
rows = [
    ("Cc1nn(CCCCCCCC#Cc2cccc(C(=O)N[C@H]3CCC(=O)NC3=O)n2)c2cc(C(=O)Nc3cc4[nH]c([C@H]5CCCN5C)cc4cn3)ccc12 [Example 42]", "MLLT1 (Homo sapiens, UniProt Q03111)", "≥ 75%"),
    ("Cc1nn(CCCCCC#Cc2cccc3c2C(=O)N(C2CCC(=O)NC2=O)C3=O)c2cc(C(=O)Nc3cc4[nH]c([C@H]5CCCN5C)cc4cn3)ccc12 (stereo partly drawn) [Example 33]", "MLLT1 (Homo sapiens, UniProt Q03111)", "50 to 75%"),
    ("Cc1nn(CCCCCN2CCN(c3cc4c(cc3F)C(=O)N(C3CCC(=O)NC3=O)C4=O)CC2)c2cc(C(=O)Nc3cc4[nH]c([C@H]5CCCN5C)cc4cn3)ccc12 (stereo partly drawn) [Example 23]", "MLLT1 (Homo sapiens, UniProt Q03111)", "≥ 75%"),
    ("Cc1nn(CCCCCCCC#Cc2cccc3c2CN(C2CCC(=O)NC2=O)C3=O)c2cc(C(=O)Nc3cc4[nH]c([C@H]5CCCN5C)cc4cn3)ccc12 (mixture of isomers) [Example 1]", "MLLT1 (Homo sapiens, UniProt Q03111)", "≥ 75%"),
    ("Cc1nn(CCCCC#Cc2cccc3c2CN(C2CCC(=O)NC2=O)C3=O)c2cc(C(=O)Nc3cc4[nH]c([C@H]5CCCN5C)cc4cn3)ccc12 (stereo partly drawn) [Example 46]", "MLLT1 (Homo sapiens, UniProt Q03111)", "≥ 75%"),
    ("Cc1nn(CCCCCCCC#Cc2cccc(C3CCC(=O)NC3=O)n2)c2cc(C(=O)Nc3cc4[nH]c([C@H]5CCCN5C)cc4cn3)ccc12 (stereo partly drawn) [Example 62]", "MLLT1 (Homo sapiens, UniProt Q03111)", "50 to 75%"),
]
